Biological target: HGF (hepatocyte growth factor/scatter factor) (UniProt P14210;P14210 P14210:32-494,P14210:495-728)
Sequence (P14210 32-494, chain 1 of 2): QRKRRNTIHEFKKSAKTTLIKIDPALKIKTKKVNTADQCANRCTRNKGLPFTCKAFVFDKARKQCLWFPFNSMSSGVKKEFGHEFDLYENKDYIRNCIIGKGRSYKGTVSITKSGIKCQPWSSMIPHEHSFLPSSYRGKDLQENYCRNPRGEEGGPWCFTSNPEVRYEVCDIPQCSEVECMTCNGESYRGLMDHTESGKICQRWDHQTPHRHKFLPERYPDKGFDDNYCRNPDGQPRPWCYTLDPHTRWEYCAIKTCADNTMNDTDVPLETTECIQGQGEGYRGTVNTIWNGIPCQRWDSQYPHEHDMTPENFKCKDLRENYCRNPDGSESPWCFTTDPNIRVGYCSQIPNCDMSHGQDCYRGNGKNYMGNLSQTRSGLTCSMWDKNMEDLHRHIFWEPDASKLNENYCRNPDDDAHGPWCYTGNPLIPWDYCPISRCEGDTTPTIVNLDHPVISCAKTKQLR
Sequence (P14210 495-728, chain 2 of 2): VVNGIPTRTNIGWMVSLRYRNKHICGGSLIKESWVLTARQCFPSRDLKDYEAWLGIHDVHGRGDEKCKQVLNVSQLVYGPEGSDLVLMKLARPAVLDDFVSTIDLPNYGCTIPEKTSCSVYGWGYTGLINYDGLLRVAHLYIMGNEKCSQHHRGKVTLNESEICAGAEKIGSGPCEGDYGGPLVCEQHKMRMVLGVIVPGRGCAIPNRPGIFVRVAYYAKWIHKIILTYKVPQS
Assay: filter; HBSMC, 37C
Conditions: tags: R&D Systems
// pKd lookup, one value per entry
When answering, recall that pKd equals minus log10 of the concentration in mol/L, and write that number alone.

See these solved cases before continuing.
8-158 (ssRNA, 2'-F pyrimidines) RNA: GGGAGGACGAUGCGGCCGGCUCGAUGUCGUCUUACCCCUUUGCCCCAGACGACUCGCCCGA	9.51
8-155 (ssRNA, 2'-F pyrimidines) RNA: GGGAGGACGAUGCGGUGUGAACCUAUUUAUGCCAUCUCGAGUGCCCAGACGACUCGCCCGA	10.03
8-113 (ssRNA, 2'-F pyrimidines) RNA: GGGAGGACGAUGCGGUGAAUUCCUCUGGCUGAAAAUGACUUGUGCCAGACGACUCGCCCGA	10.08
11-166 (ssRNA, 2'-F pyrimidines) RNA: GGGAGGACGAUGCGGGUUUGAGUUCUGACACGUCUUGUCCCAUGCCAGACGACUCGCCCGA	10.10

Q: Please list pKd recorded for the binder 11-59 (ssRNA, 2'-F pyrimidines) RNA: GGGAGGACGAUGCGGCGUGAGCCUGUAUAUGUCAUUGUUCUCCGGCAGACGACUCGCCCGA
Result: 9.96
